Where these numbers come from: BindingDB's records for doi:10.1021/jm070130j

compounds and their reported pEC50
# TEST SYSTEM: Free fatty acid receptor 1 (Homo sapiens)
# Sequence (O14842 whole entry): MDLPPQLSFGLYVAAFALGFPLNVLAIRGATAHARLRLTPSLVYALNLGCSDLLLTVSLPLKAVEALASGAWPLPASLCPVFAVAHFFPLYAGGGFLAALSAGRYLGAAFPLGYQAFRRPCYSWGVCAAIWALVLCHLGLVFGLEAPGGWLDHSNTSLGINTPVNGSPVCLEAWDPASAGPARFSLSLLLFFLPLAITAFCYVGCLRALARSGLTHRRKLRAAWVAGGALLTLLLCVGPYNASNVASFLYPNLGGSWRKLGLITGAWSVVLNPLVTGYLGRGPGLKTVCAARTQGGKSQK
# TEST: GPR40 FDSS Assay
# MEASUREMENT CONDITIONS: 37 °C
pEC50: −log10 of the molar value.
MEASURED ATTRIBUTE: pEC50

{"COMPOUND": "CCCCOc1ccc(C(CCCC(=O)O)c2ccccc2)cc1 (stereo not drawn)", "ENDPOINT RESULT": "< 5.00"}
{"COMPOUND": "CCCCOc1ccc(C(CC(=O)O)c2ccc(C(F)(F)F)cc2)cc1 (stereo not drawn)", "ENDPOINT RESULT": "< 5.00"}
{"COMPOUND": "CCCCCOc1cccc(C(CC(=O)O)c2ccccc2)c1 (stereo not drawn)", "ENDPOINT RESULT": "< 5.00"}
